Source: paper PMC9041133

test: Pharmacokinetic study in healthy volunteers after oral fixed-combination tablet, plasma measured by USA-DMSPE-HPLC-UV; format: in vivo; settings: human
assay readout: Tmax (h)

Cc1nc(-c2ccc(OCC(C)C)c(C#N)c2)sc1C(=O)O
3.15
O=C(O)Cc1ccccc1Nc1c(Cl)cccc1Cl
2.88

---

assay: Pharmacokinetic study in healthy volunteers after oral fixed-combination tablet, plasma measured by USA-DMSPE-HPLC-UV; format: in vivo; conditions: human, read-out: T ½ (converted)
assay readout: half-life (h)

Cc1nc(-c2ccc(OCC(C)C)c(C#N)c2)sc1C(=O)O [Febuxostat]
6.3
O=C(O)Cc1ccccc1Nc1c(Cl)cccc1Cl [Diclofenac, 2-(2,6-dichloranilino)phenylacetic acid]
5.1
